Numbers sourced from the supplement of paper PMC6555819.

# System: RXRa DBDmut IVT, anti-RXR (DBD mutation: RXRa K156A/R161A, NR concentration 90 nM)
# Assay Notes: PBM binding z-score (relative to random genomic background probes); higher = stronger binding; sequences stand for … in GC…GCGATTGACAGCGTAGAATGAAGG
Kindly return Condition met if reported PBM binding z-score is no lower than 0.9; return Condition not met if it is lower.

Solved entries (count: 5):
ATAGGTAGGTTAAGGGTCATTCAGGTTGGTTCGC    Condition met
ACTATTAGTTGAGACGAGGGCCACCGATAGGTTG    Condition not met
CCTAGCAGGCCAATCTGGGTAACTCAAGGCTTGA    Condition not met
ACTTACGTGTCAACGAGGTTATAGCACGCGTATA    Condition not met
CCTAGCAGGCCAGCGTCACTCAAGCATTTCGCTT    Condition not met

query: Check this sequence for PBM binding z-score at or above 0.9: "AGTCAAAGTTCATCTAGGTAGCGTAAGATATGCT"
result: Condition met

query: State whether the measured PBM binding z-score reaches 0.9, counting equality as reaching it, for "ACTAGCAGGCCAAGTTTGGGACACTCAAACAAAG"
result: Condition not met

query: For this sequence, is measured PBM binding z-score 0.9 or higher? "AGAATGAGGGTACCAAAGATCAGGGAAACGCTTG"
result: Condition not met

query: Given the entry "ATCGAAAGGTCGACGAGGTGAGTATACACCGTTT" , answer whether its PBM binding z-score meets or surpasses 0.9.
result: Condition met

query: Quick check: does "CTACCAAGGTGAACAAGGTTGTTGATTACTATTC" have PBM binding z-score greater than or equal to 0.9?
result: Condition not met

query: Reported PBM binding z-score reaches at least 0.9 for "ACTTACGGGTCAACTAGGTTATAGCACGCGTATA" ?
result: Condition met

query: In plain terms: is recorded PBM binding z-score at least 0.9 for "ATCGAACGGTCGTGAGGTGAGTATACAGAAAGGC" ?
result: Condition not met

query: For this sequence, is measured PBM binding z-score 0.9 or higher? "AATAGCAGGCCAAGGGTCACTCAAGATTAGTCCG"
result: Condition not met

query: hey, is PBM binding z-score for this one >= 0.9? "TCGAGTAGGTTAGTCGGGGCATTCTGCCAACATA"
result: Condition not met

query: Given "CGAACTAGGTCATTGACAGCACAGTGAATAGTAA" , state whether its PBM binding z-score is at least 0.9.
result: Condition met

query: Quick check: does "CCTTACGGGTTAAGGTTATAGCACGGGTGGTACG" have PBM binding z-score greater than or equal to 0.9?
result: Condition not met
